All values here come from patent US20150037328A1.

# ASSAYED SYSTEM: T1, human CXCR4-enriched lipoparticles (LEV101, Integral Molecular) (human, UniProt P61073 1-352)
# T1 construct: Bought reagent; CXCR4 held in lipoparticles captured by biotinylated WGA on an SA chip; also called Lipoparticles containing CXCR4 proteins
# T1 sequence (P61073 whole entry): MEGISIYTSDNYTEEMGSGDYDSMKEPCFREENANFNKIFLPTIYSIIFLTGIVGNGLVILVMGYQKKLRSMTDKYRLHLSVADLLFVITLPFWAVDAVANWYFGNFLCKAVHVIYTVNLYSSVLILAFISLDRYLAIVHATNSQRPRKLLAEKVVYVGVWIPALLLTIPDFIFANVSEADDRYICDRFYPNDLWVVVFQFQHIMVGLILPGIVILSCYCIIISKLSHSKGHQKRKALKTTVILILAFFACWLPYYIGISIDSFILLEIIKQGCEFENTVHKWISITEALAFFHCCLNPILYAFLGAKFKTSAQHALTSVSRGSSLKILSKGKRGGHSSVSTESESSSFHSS
# ASSAY NOTES: biosensor kinetic titration, Fab over captured human CXCR4 lipoparticles

# BINDER, UNITS TEXT, koff
rows = [
    ("h3G10.2.37 VH / h3G10.2.72 VL Fab (Fab, V domains shown, Tested as Fab) VH: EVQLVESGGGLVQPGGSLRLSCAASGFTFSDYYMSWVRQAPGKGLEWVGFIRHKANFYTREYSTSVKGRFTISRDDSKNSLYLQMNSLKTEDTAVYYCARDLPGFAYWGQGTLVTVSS VL: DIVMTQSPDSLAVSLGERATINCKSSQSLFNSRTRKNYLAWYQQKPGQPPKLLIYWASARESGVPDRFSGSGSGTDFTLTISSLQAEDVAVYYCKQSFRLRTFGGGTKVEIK", "s⁻¹", 0.0008),
    ("h3G10.2.37 VH / h3G10.A58A VL Fab (Fab, V domains shown, Tested as Fab) VH: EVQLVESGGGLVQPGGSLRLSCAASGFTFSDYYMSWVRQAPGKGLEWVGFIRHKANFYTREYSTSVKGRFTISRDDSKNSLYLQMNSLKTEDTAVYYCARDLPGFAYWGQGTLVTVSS VL: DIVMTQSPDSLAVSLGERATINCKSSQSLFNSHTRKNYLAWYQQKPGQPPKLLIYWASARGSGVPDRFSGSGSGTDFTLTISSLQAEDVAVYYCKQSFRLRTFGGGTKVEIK", "s⁻¹", 0.000418),
]
